System: WT Max(13-93) synthetic (M65Nle)
Assay: PBM 8-mer E-score (E-score (rank enrichment, -0.5 to 0.5)); higher = stronger preferential binding
In all, about 33,000 sequences were measured (“E-score (rank enrichment, -0.5 to 0.5)”: median about -0.0075, highest 2% from about 0.23 on). Shown is part of a subset that was picked to be rich in the highest values.
Label 1 when PBM 8-mer E-score is at or above 0.2; otherwise label -1.

Problem: Answer whether PBM 8-mer E-score of "GGACCTCC" is greater than or equal to 0.2.
Solution: -1

Problem: Reported PBM 8-mer E-score at or above 0.2? "AAATGTGG"
Solution: 1

Problem: Would you say "AGTTAACA" shows PBM 8-mer E-score at minimum 0.2?
Solution: -1

Problem: Assess whether reported PBM 8-mer E-score for "CCGTGTCG" sits at 0.2 or higher.
Solution: -1

Problem: Has "GATGTGTA" a recorded PBM 8-mer E-score greater than or equal to 0.2?
Solution: -1

Problem: Does PBM 8-mer E-score meet or surpass 0.2 for "ACTATATA" ?
Solution: 1

Problem: Quick check, PBM 8-mer E-score >= 0.2? "CAAAATAA"
Solution: 1

Problem: Confirm if PBM 8-mer E-score reported for the sequence "ACGTAACT" is 0.2 or above.
Solution: -1

Problem: Decide: PBM 8-mer E-score of "AACGGTAC" >= 0.2?
Solution: -1

Problem: State whether the measured PBM 8-mer E-score reaches 0.2, counting equality as reaching it, for "CTTATAGC"
Solution: -1

Problem: Dear colleague, could you confirm whether "AGCATGTG" has PBM 8-mer E-score at or above 0.2?
Solution: 1

Problem: API: above_or_equal(metric=PBM 8-mer E-score, cutoff=0.2) for item "GTTGTTTA"
Solution: 1

Problem: Given "AGCATGGG" , state whether its PBM 8-mer E-score is at least 0.2.
Solution: -1

Problem: Is reported PBM 8-mer E-score greater than or equal to 0.2 here: "AGAACTGC"
Solution: -1

Problem: // inclusive: PBM 8-mer E-score at least 0.2? input: "ACGTGTCA"
Solution: 1

Problem: Does PBM 8-mer E-score meet or surpass 0.2 for "CCAAAAAA" ?
Solution: -1

Problem: Given the entry "ATTAATGA" , answer whether its PBM 8-mer E-score meets or surpasses 0.2.
Solution: 1

Problem: Please indicate if the recorded PBM 8-mer E-score for "AACGGTAT" meets or exceeds 0.2.
Solution: -1

Problem: Test whether the sequence "ACATCCGA" records PBM 8-mer E-score of 0.2 or higher.
Solution: -1

Problem: Determine whether measured PBM 8-mer E-score meets or exceeds 0.2 for "CGTCGGGA"
Solution: -1

Problem: Identify whether the reported PBM 8-mer E-score of the following sequence is 0.2 or greater: "CTTAATTA"
Solution: -1

Problem: Assess whether reported PBM 8-mer E-score for "CATCCAAG" sits at 0.2 or higher.
Solution: -1

Problem: Assess whether reported PBM 8-mer E-score for "CGTTAACA" sits at 0.2 or higher.
Solution: -1

Problem: Does "ATCTGATC" have a reported PBM 8-mer E-score of at least 0.2?
Solution: -1

Problem: Please tell me: is the sequence "ACGTGTCT" at or over 0.2 in terms of PBM 8-mer E-score?
Solution: 1

Problem: # check: PBM 8-mer E-score of "CAATGTGG" is greater than or equal to 0.2
Solution: -1

Problem: Dear colleague, could you confirm whether "ACATATGG" has PBM 8-mer E-score at or above 0.2?
Solution: -1

Problem: Kindly determine if PBM 8-mer E-score recorded for "TACGATAA" is above or exactly 0.2.
Solution: -1

Problem: hey, is PBM 8-mer E-score for this one >= 0.2? "GATTCATA"
Solution: -1

Problem: Could you please find out whether "ACATATGT" has PBM 8-mer E-score that meets 0.2 or exceeds it?
Solution: 1

Problem: Confirm if PBM 8-mer E-score reported for the sequence "CCGTGTCA" is 0.2 or above.
Solution: -1

Problem: Check this sequence for PBM 8-mer E-score at or above 0.2: "AAGTGTCT"
Solution: -1

Problem: I'd appreciate it if you could say whether "ACTATATC" has PBM 8-mer E-score at least equal to 0.2.
Solution: 1

Problem: Does PBM 8-mer E-score meet or surpass 0.2 for "CGGAACAG" ?
Solution: -1

Problem: Could you tell me if the measured PBM 8-mer E-score of "AATTCCCA" reaches 0.2 or more?
Solution: 1

Problem: In plain terms: is recorded PBM 8-mer E-score at least 0.2 for "ACTCCGAT" ?
Solution: -1

Problem: I'd appreciate it if you could say whether "GGCATGTA" has PBM 8-mer E-score at least equal to 0.2.
Solution: -1

Problem: # check: PBM 8-mer E-score of "ATGTGTGG" is greater than or equal to 0.2
Solution: -1

Problem: Could you please find out whether "GCGTGTCC" has PBM 8-mer E-score that meets 0.2 or exceeds it?
Solution: -1

Problem: Evaluate "TCGAGACA" : PBM 8-mer E-score at minimum 0.2?
Solution: -1

Problem: Is PBM 8-mer E-score for "AAATGTGT" at or above 0.2?
Solution: 1

Problem: Quick check: does "TGCCAGAA" have PBM 8-mer E-score greater than or equal to 0.2?
Solution: -1

Problem: Determine whether measured PBM 8-mer E-score meets or exceeds 0.2 for "GTTAATTA"
Solution: -1

Problem: Record "ATATGTGG" ; criterion: PBM 8-mer E-score no lower than 0.2. Met?
Solution: 1

Problem: Hello, I need to know if "CCTGGCCC" has measured PBM 8-mer E-score not below 0.2. Thanks!
Solution: -1

Problem: Given "AAGACGGA" , state whether its PBM 8-mer E-score is at least 0.2.
Solution: -1

Problem: Is the recorded value of PBM 8-mer E-score equal to or greater than 0.2 for this sequence? "AGTAGACC"
Solution: -1

Problem: Check if PBM 8-mer E-score >= 0.2 (inclusive). Item: "CGTGTGCC"
Solution: -1

Problem: Please check the record "ACAGTATA" and state if its PBM 8-mer E-score is at or above 0.2.
Solution: -1

Problem: Threshold query (PBM 8-mer E-score >= 0.2) on "GTGTCCTA"
Solution: -1

Problem: Textbook exercise: given the entry "CAGCCGGG" , state whether its PBM 8-mer E-score is greater than or equal to 0.2.
Solution: -1

Problem: For this sequence, is measured PBM 8-mer E-score 0.2 or higher? "ATAGGCTA"
Solution: -1

Problem: Confirm if PBM 8-mer E-score reported for the sequence "ATGGTTTA" is 0.2 or above.
Solution: -1

Problem: Reported PBM 8-mer E-score reaches at least 0.2 for "AGACAACT" ?
Solution: -1

Problem: Textbook exercise: given the entry "GCTATATA" , state whether its PBM 8-mer E-score is greater than or equal to 0.2.
Solution: -1

Problem: Is PBM 8-mer E-score at least 0.2? Consider "ATGAATGC"
Solution: -1

Problem: Would you say "CATTCATA" shows PBM 8-mer E-score at minimum 0.2?
Solution: 1

Problem: Does the sequence "ACAAAATA" have recorded PBM 8-mer E-score that is 0.2 or more?
Solution: 1

Problem: Would you say "TGTTAACA" shows PBM 8-mer E-score at minimum 0.2?
Solution: 1

Problem: Textbook exercise: given the entry "ACGTGTCG" , state whether its PBM 8-mer E-score is greater than or equal to 0.2.
Solution: 1

Problem: Is reported PBM 8-mer E-score greater than or equal to 0.2 here: "AACATAGT"
Solution: -1

Problem: Is PBM 8-mer E-score at least 0.2? Consider "GGGAGATA"
Solution: -1

Problem: Form field: PBM 8-mer E-score at least 0.2? Entry: "ATATGTGC"
Solution: -1

Problem: Has "CTGCCGGA" a recorded PBM 8-mer E-score greater than or equal to 0.2?
Solution: -1

Problem: Hi team, for "GACCATCA" , is the recorded PBM 8-mer E-score at or above 0.2?
Solution: -1

Problem: For this sequence, is measured PBM 8-mer E-score 0.2 or higher? "ATTAATGC"
Solution: -1

Problem: Say whether "CACGCCTG" shows PBM 8-mer E-score of 0.2 or more.
Solution: -1

Problem: Textbook exercise: given the entry "CTATGTGA" , state whether its PBM 8-mer E-score is greater than or equal to 0.2.
Solution: -1

Problem: Is PBM 8-mer E-score for "AGCATGTC" at or above 0.2?
Solution: -1

Problem: Decide: is the reported value of PBM 8-mer E-score for "CTTAATTC" equal to or greater than 0.2?
Solution: 1

Problem: Is reported PBM 8-mer E-score greater than or equal to 0.2 here: "GACGAACA"
Solution: -1

Problem: Reported PBM 8-mer E-score at or above 0.2? "ATTAATTG"
Solution: -1

Problem: Entry "CATTCATC" : is its PBM 8-mer E-score no less than 0.2?
Solution: -1

Problem: Check this sequence for PBM 8-mer E-score at or above 0.2: "CGCTGTGA"
Solution: -1

Problem: Determine whether this sequence has PBM 8-mer E-score no lower than 0.2: "GGTGTGCA"
Solution: -1

Problem: Check the entry "AAAAATAA" : does PBM 8-mer E-score equal or exceed 0.2?
Solution: -1

Problem: Is it the case that "CGGGCTCA" has PBM 8-mer E-score reaching or exceeding 0.2?
Solution: -1

Problem: Please tell me: is the sequence "ATCTCAAA" at or over 0.2 in terms of PBM 8-mer E-score?
Solution: -1

Problem: # check: PBM 8-mer E-score of "ACTAGGCA" is greater than or equal to 0.2
Solution: -1

Problem: For this sequence, is measured PBM 8-mer E-score 0.2 or higher? "ATAGACAA"
Solution: -1

Problem: For this sequence, is measured PBM 8-mer E-score 0.2 or higher? "ATATGTGA"
Solution: 1

Problem: State whether the measured PBM 8-mer E-score reaches 0.2, counting equality as reaching it, for "ACAAAATG"
Solution: 1

Problem: # bool: PBM 8-mer E-score of "ATTAATTA" >= 0.2
Solution: 1

Problem: Please indicate if the recorded PBM 8-mer E-score for "CCGTGTCC" meets or exceeds 0.2.
Solution: -1

Problem: # check: PBM 8-mer E-score of "ACGGCGGC" is greater than or equal to 0.2
Solution: -1

Problem: // inclusive: PBM 8-mer E-score at least 0.2? input: "ATGAATGG"
Solution: 1

Problem: Reported PBM 8-mer E-score reaches at least 0.2 for "CGTGGCCA" ?
Solution: -1

Problem: Tell me whether PBM 8-mer E-score is at least 0.2 here: "GAATTGCA"
Solution: -1

Problem: Decide: is the reported value of PBM 8-mer E-score for "TAGCTGGA" equal to or greater than 0.2?
Solution: -1

Problem: Assess whether reported PBM 8-mer E-score for "ACCATATA" sits at 0.2 or higher.
Solution: 1

Problem: Hello, I need to know if "CAAAAAAA" has measured PBM 8-mer E-score not below 0.2. Thanks!
Solution: 1
